# assayExplanation: Aqueous solubility estimation of Compound 2 Form G, Form O and Form I at RT (Example 13, Table 27)
# Assay type: physicochemical
# setupConditions: thermodynamic from solid, water, stirring 2 hrs at 800 RPM
# Procedure: Aqueous solubility tests at RT were conducted on the two potential anhydrates, Form G and O, and the hydrated Form I. About 3 mg of each form was weighed into a 2-mL vial. […] of water was added and stirred thoroughly at RT with the speed of 800 RPM.
Known solubility at 2 h of a selection of compounds

| compound | solubility at 2 h |
| --- | --- |
| C[C@H]1CCc2c(ccc(-c3cnn(C4CCNCC4)c3)c2OC2CCC2)N1C(=O)C1CC1.O=C(O)CCC(=O)O [Form O] | > 60 mg/mL |
| C[C@H]1CCc2c(ccc(-c3cnn(C4CCNCC4)c3)c2OC2CCC2)N1C(=O)C1CC1.O=C(O)CCC(=O)O [Form G] | > 60 mg/mL |
